target: human small ubiquitin-like modifier 1 (human) (UniProt P63165); test: SPR (monobody on the chip via His-tag, target flowed); estimated Kd [Continued]
Please provide measured pKd for the entries that follow.
To interpret pKd, take it as minus log10 of a concentration measured in moles per litre.

Exercise: Read the entry SEQ ID NO 96 (designed binder) VSSVPTKLEVVAATPTSLLISWDASSSSVSHYDITYGETGGNSPVQEFTVPGSSSTATISGLSPGVDYTITVHAYYSYDDIYVAISPSSINYRT and write its reported pKd.
Solution: 5.66

Exercise: Dear colleague, please send me the reported pKd for SEQ ID NO 88 (designed binder) VSSVPTKLEVVAATPTSLLISWDASSSSVSHYGITYGETGGNSPVQEFTVPGSSSTATISGLSPGVDYTITVYAYHSYDDIYYALSPSSINYRT when you can.
Solution: 6.54

Data origin, for the record: patent US20140057807A1
